Each entry below lists one item and its recorded abundance fitness value.
B1: Protein S100-G, residues 1 to 79; numbered along this chain, P02633 (parent)
chain: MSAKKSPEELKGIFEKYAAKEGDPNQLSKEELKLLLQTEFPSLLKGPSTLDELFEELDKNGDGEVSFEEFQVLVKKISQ

- Variants of: B1
- method: abundance fitness (aPCA) (normalised: wild type 0, dead -1); higher = more abundant; growth selection in yeast, the domain comes from the species named
- condition: Bos taurus

Recorded results for 2 variants are shown here.
MSAKKSPEELKGIFEKYAAKEGDPNQLSKEELKLLLQTEFPSLLKGPSTLDELFEELDHNGDGEVSFEEFQVLVKKISQ [K59H] | 0.013
MSAKKSPEELKGIFEKYAAKQGDPNQLSKEELKLLLQTEFPSLLKGPSTLDELFEELDKNGDGEVSFEEFQVLVKKISQ [E21Q] | -0.031

The reported value for MSAKKSPEELKGIFEKYAAKEGDPNQLSKEELKLLLVTEFPSLLKGPSTLDELFEELDKNGDGEVSFEEFQVLVKKISQ [Q37V] in terms of abundance fitness is -0.001

Entry MSAKKSPEEEKGIFEKYAAKEGDPNQLSKEELKLLLQTEFPSLLKGPSTLDELFEELDKNGDGEVSFEEFQVLVKKISQ [L10E] , abundance fitness reported as -0.202

Recorded result, MSAKKSMEELKGIFEKYAAKEGDPNQLSKEELKLLLQTEFPSLLKGPSTLDELFEELDKNGDGEVSFEEFQVLVKKISQ [P7M] , abundance fitness: 0.058

Sure, the documented abundance fitness for MSAKKSPEELKGIFEKYAAKEGDPNQLSKEELKLLLQTEFPSLLKGPETLDELFEELDKNGDGEVSFEEFQVLVKKISQ [S48E] is 0.042

Entry MSAKKSPEELWGIFEKYAAKEGDPNQLSKEELKLLLQTEFPSLLKGPSTLDELFEELDKNGDGEVSFEEFQVLVKKISQ [K11W] — recorded abundance fitness = -0.294

Summary for this variant, MSAKKSPEELKGIFEKYAAKEGDPNQLSKEELKLLLQTEFPSLLKGPSTLDELFEELDKNGDGEVSFEEFQVLIKKISQ [V74I] : abundance fitness is 0.066

abundance fitness measured on MIAKKSPEELKGIFEKYAAKEGDPNQLSKEELKLLLQTEFPSLLKGPSTLDELFEELDKNGDGEVSFEEFQVLVKKISQ [S2I] = 0.144

Lookup result for MSAKKSPEELKGIFEKYAAKEGDPNQLSKEELKLLLQTEFPSLLKGPSTLDELFEELDTNGDGEVSFEEFQVLVKKISQ [K59T] ; measured abundance fitness: 0.007

Recorded abundance fitness (variant MSAKKSPEELKGIFEKYAAKEGDPNQLSKESLKLLLQTEFPSLLKGPSTLDELFEELDKNGDGEVSFEEFQVLVKKISQ [E31S] ): 0.002

# abundance fitness of MSAKKSPEELKGIFEKYAAKEGDPNQLSKEELKLLLQTEFPSLLKGPSTLDELFEELDKNGDGEVSFTEFQVLVKKISQ [E68T] = -0.012

Item: MSAKKSPEELKGIFEKYAAKEGDPNQLSKEELKLLLQTEFPSLLKGPSTLDELFEELDKNGDGEKSFEEFQVLVKKISQ [V65K] | abundance fitness: -0.171
